- assayComment: n-Octanol/water partition coefficient, logP of the compound by UHPLC analysis
- Type: physicochemical
I'd appreciate it if you could supply logP values for the items below.
Give bare numbers.

Illustrative cases are given below, each with its answer.
INSERT INTO assay_data (structuresmiles, observedvalue) VALUES
  ('COc1cc2c(cc1OC)CN(CCNC(=O)c1ccc(C)c(Nc3nccc(-c4ccccn4)n3)c1)CC2', 1.71),
  ('COc1cc2c(cc1OC)CN(CCc1ccc(NC(=O)c3ccc(C)c(Nc4nccc(-c5ccccc5)n4)c3)cc1)CC2', 1.89),
  ('COc1cc2c(cc1OC)CN(CCc1ccc(NC(=O)c3cc(=O)c4ccccc4o3)cc1)CC2', 0.93),
  ('COc1cc2c(cc1OC)CN(CCc1ccc(NC(=O)c3ccc(C)c(Nc4nccc(-c5cccc(O)c5)n4)c3)cc1)CC2', 2.28),
  ('COc1ccc(-c2ccnc(Nc3cc(C(=O)NCCN4CCc5cc(OC)c(OC)cc5C4)ccc3C)n2)cc1', 2.16),
  ('COc1cc2c(cc1OC)CN(CCc1ccc(NC(=O)c3ccc(C)c(Nc4nccc(-c5ccccc5O)n4)c3)cc1)CC2', 2.77),
  ('COc1cc2c(cc1OC)CN(CCNC(=O)c1ccc(C)c(Nc3nccc(-c4cccnc4)n3)c1)CC2', 0.8);

# ---- query compound ----
Lab note: measured logP of `COc1cc2c(cc1OC)CN(CCc1ccc(NC(=O)c3cc(=O)c4ccc(C)cc4o3)cc1)CC2` was 1.87

Where do these numbers come from? They come from ChEMBL document CHEMBL4808186.
